Hi there, I'd appreciate the recorded GI50 for every entry that follows.
Test system: NCI-H460
Experiment: NCI tumour cell line growth inhibition, 48 h
Activity calls are given as the source filed them. No stated cut-off is given here; in the data, active = GI50 up to about 1.1 µM and inactive = higher.

Ask: Give GI50 for N#Cc1cc2c(n(C3OC(CO)C(O)C(O)C3O)c1=S)CCCCC2 (configuration not stated)
Result: > 100 µM (inactive)

Ask: Give GI50 for `COC(=O)/C=C1/OC(c2ccc(C)cc2)=C(Cl)C1=O`
Result: 22 µM (inactive)

Ask: Give GI50 for `Cc1c(CCCl)c(N=[N+]=[N-])n2c(nc3ccccc32)c1C#N`
Result: 1.39 µM (inactive)

Ask: Give GI50 for `Nn1c(SCC(=O)O)nc2ccccc2c1=O`
Result: > 100 µM (inactive)

Ask: Give GI50 for N[C@H]1CCC[C@@H](O)C1O (some centres not stated)
Result: > 100 µM (inactive)

Ask: Give GI50 for C=CC(=C)CCC(Br)C(C)(C)Br (configuration not stated)
Result: > 100 µM (inactive)

Ask: Give GI50 for Cc1ccc([S+]([O-])c2cccs2)cc1 (configuration not stated)
Result: > 100 µM (inactive)

Ask: Give GI50 for C1=CC(N(c2ccccc2)C2C=CCCC2)CCC1 (configuration not stated)
Result: > 100 µM (inactive)

Ask: Give GI50 for `CO/N=C(\C)c1ccc(Nc2nc3ccccc3c3occc23)cc1`
Result: 15.6 µM (inactive)

Ask: Give GI50 for `CC1(C)C(C#N)=[N+]([O-])C(C)(C)N1O`
Result: > 100 µM (inactive)

Ask: Give GI50 for `c1ccc([I+]c2ccccc2)cc1`
Result: > 100 µM (inactive)

Ask: Give GI50 for `COc1ccc(CNNC(=O)c2cc[n+]([BH2-]C#N)cc2)cc1OC`
Result: > 100 µM (inactive)
